This section presents compounds with their documented PRKCT percentage of activity values.
# TARGET_SYSTEM: each individual kinase of the panel (Homo sapiens, UniProt Q04759)
# METHOD: Standardized radiometric kinase assays, percentage of activity at 0.5 μM
Write down the numeric answer in % and omit the unit.

## Input Provide measured PRKCT percentage of activity value, entry: O=C(O)c1ccc2c(c1)nc(Nc1cccc(Cl)c1)c1ccncc12 [drawing 1136]
## Output −3

---

# TARGET_SYSTEM: recombinant human PIM1 (Homo sapiens (Human), UniProt P11309)
# Sequence (P11309 whole entry): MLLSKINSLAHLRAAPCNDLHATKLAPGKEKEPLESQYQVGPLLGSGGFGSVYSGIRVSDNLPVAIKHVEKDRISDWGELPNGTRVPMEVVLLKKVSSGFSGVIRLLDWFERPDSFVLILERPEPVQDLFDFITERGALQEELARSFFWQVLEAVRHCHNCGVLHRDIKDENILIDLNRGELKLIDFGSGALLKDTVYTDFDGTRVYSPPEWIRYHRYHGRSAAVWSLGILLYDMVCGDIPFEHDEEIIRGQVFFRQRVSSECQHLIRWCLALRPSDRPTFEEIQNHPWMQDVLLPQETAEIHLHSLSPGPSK
# METHOD: PIM-1 kinase activity in cell-free in vitro assay
# Format: biochemical
# PROTOCOL_CONDITIONS: 500 nM compound, cell-free assay; read-out: PIM-1: % inh 500 nM
Each item that follows carries a reported inhibition at 0.5 µM.
Give your result in % as a bare value.

Some molecules with recorded inhibition at 0.5 µM:
1) C#Cc1cccc(Nc2nc3cc(C(=O)O)ccc3c3nccnc23)c1: -4.59
2) CN1CCN(c2nc3cc(C(=O)NCc4nccn4C)ccc3c3sccc23)CC1: -14.5
3) COC(=O)c1ccc2c(c1)nc(N)c1nc(SC)ncc12: -13.2
4) O=C(Nc1nccs1)c1ccc2c(c1)nc(Nc1cccc(Cl)c1)c1ccncc12: -6.62
5) O=C(O)c1ccc2c(c1)nc(Nc1ccccc1)c1nccnc12: -7.65

API: the following record is the query input.
## Input Indicate its recorded inhibition at 0.5 µM; the molecule in question is CC(C)(C)OC(=O)NC1CCN(c2nc3cc(C#N)ccc3c3sccc23)C1 (stereo not drawn)
## Output 10

---

# TARGET_SYSTEM: recombinant human CK2 (Homo sapiens (Human), UniProt P68400)
# Sequence (P68400 whole entry): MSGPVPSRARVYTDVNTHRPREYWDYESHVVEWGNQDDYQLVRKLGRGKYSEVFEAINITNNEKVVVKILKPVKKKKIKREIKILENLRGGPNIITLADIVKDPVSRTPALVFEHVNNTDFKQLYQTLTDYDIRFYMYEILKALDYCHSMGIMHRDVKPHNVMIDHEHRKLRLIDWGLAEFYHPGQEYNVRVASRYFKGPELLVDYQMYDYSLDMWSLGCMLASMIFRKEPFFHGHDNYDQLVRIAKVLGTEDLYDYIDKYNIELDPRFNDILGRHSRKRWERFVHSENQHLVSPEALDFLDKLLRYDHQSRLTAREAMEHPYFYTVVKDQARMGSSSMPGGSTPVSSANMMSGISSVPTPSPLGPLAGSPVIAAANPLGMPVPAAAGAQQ
# Sequence (P67870 whole entry partner): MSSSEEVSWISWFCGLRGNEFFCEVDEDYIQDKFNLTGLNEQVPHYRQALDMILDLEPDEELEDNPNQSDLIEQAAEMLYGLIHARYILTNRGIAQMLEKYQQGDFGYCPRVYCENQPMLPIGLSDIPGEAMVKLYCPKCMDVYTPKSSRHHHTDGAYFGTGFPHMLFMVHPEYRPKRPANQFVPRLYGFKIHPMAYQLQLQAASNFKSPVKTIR
# METHOD: CK2 assay (cell-free, 33P-ATP filter plate)
# Type: biochemical
# PROTOCOL_CONDITIONS: 500 nM compound, cell-free assay; read-out: CK2: % inh 500 nM
Answer not satisfied if inhibition at 0.5 µM is under 30%, and satisfied if it is 30% or more.

The following compounds have reported results that may help.
1) O=C(O)c1ccc2c(c1)nc(Nc1cccc(CO)c1)c1ccncc12: satisfied
2) c1ccc(Nc2nc3ccccc3c3cnccc23)cc1: not satisfied
3) Fc1ccc(Nc2nc3cc(-c4nnn[nH]4)ccc3c3cscc23)cc1: satisfied
4) CCN(CC)CCNc1nc2cc(-c3nnn[nH]3)ccc2c2sccc12: satisfied
5) CN1CCCC(Nc2nc3cc(C#N)ccc3c3sccc23)C1 (centres unmarked): not satisfied

## Input Textbook exercise: given the entry O=C(O)c1ccc2c(c1)nc(Nc1cccc(Cl)c1)c1cccnc12 , state whether its inhibition at 0.5 µM is greater than or equal to 30%.
## Output satisfied

## Input Would you say CC(C)(C)OC(=O)N1CCCC1CCNc1nc2cc(C#N)ccc2c2sccc12 (centres unmarked) shows inhibition at 0.5 µM at minimum 30%?
## Output not satisfied

## Input Exam item: decide whether the reported inhibition at 0.5 µM for CN1CCCCC1CNc1nc2cc(-c3nnn[nH]3)ccc2c2ccsc12 (centres unmarked) is at least 30%.
## Output not satisfied

## Input Form field: inhibition at 0.5 µM at least 30%? Entry: CONC(=O)c1ccc2c(c1)nc(Nc1cccc(Cl)c1)c1ccncc12
## Output not satisfied

## Input I'd appreciate it if you could say whether Fc1ccc(Nc2nc3cc(-c4nnn[nH]4)ccc3c3cscc23)cc1Cl has inhibition at 0.5 µM at least equal to 30%.
## Output satisfied

## Input Quick check, inhibition at 0.5 µM >= 30%? O=C(O)c1ccc2c(c1)nc(NCCn1cccc1)c1ccncc12
## Output satisfied

## Input Can CN(C)CCOc1nc2cc(-c3nnn[nH]3)ccc2c2sccc12 be said to have inhibition at 0.5 µM at or above 30%?
## Output satisfied

## Input Decide: is the reported value of inhibition at 0.5 µM for O=C(O)c1ccc2c(c1)nc(Nc1cccc(Cl)c1)c1cnccc12 equal to or greater than 30%?
## Output not satisfied

## Input Answer whether inhibition at 0.5 µM of N#Cc1ccc2c(c1)nc(N1CCN(c3ccccn3)CC1)c1ccsc12 is greater than or equal to 30%.
## Output not satisfied

## Input Decide: inhibition at 0.5 µM of Fc1cc(F)cc(Nc2nc3cc(-c4nnn[nH]4)ccc3c3cscc23)c1 >= 30%?
## Output satisfied

## Input Evaluate N#Cc1ccc2c(c1)nc(Oc1cccc(Cl)c1)c1ccsc12 : inhibition at 0.5 µM at minimum 30%?
## Output not satisfied

## Input I'd appreciate it if you could say whether Fc1cccc(Nc2nc3cc(CN(Cc4ccccc4)Cc4ccccc4)ccc3c3sccc23)c1 has inhibition at 0.5 µM at least equal to 30%.
## Output not satisfied

## Input Does the reported inhibition at 0.5 µM for CNc1ncc2c(n1)c(N(C)c1ccccc1)nc1cc(C(=O)O)ccc12 fall at or above the 30% mark?
## Output satisfied

## Input Determine whether this compound has inhibition at 0.5 µM no lower than 30%: CN1CCCCC1CNc1nc2cc(C(=O)O)ccc2c2sccc12 (centres unmarked)
## Output satisfied

## Input Say whether N#Cc1ccc2c(c1)nc(N1CCC(N3CCCC3)CC1)c1ccsc12 shows inhibition at 0.5 µM of 30% or more.
## Output not satisfied

## Input inhibition at 0.5 µM >= 30% for O=C(O)c1ccc2c(c1)nc(NCCc1ccccc1)c1cccnc12 ?
## Output not satisfied

---

# Test system: K-562
# METHOD: Cell proliferation modulatory activity, K-562
# Type: cell-based
# PROTOCOL_CONDITIONS: Homo sapiens, K562; Table 45; read-out: K-562 IC50
Recorded IC50 for the following molecules

1. Fc1cc(Cl)cc(Nc2nc3c(-c4nnc[nH]4)cccc3c3cnccc23)c1: < 5 µM
2. FC(F)(F)Oc1ccccc1Nc1nc2c(-c3nnc[nH]3)cccc2c2cnccc12: > 10 µM
3. Fc1ccc(Nc2nc3c(-c4nnc[nH]4)cccc3c3cnccc23)cc1: > 10 µM
4. Fc1cccc(F)c1Nc1nc2c(-c3nnc[nH]3)cccc2c2cnccc12: < 0.5 µM
5. Clc1cccc(Nc2nc3c(-c4nnc[nH]4)cccc3c3cnccc23)c1: < 1 µM

Switching to the query record.
## Input Jot down IC50 (K-562) of CN(c1ccc(Cl)cc1)c1nc2c(-c3nc[nH]n3)cccc2c2cnccc12 .
## Output < 0.5 µM

---

# TARGET_SYSTEM: recombinant human PIM1 (Homo sapiens (Human))
# METHOD: PIM-1 kinase activity in cell-free in vitro assay
# Format: biochemical
# PROTOCOL_CONDITIONS: 500 nM compound, cell-free; read-out: PIM-1: % inh 500 nM
PROPERTY_NAME: inhibition at 0.5 µM (%)
The response must be a number in % with no trailing unit.

1. O=C(O)c1ccc2c(c1)nc(NCc1ccncc1)c1ccsc12: 71.3

Here is the next item to consider.
## Input // fetch inhibition at 0.5 µM given entry O=C(O)c1ccc2c(c1)nc(Nc1cccc(C(F)(F)F)c1)c1ccsc12
## Output 74.7

---

# TARGET_SYSTEM: each individual kinase of the panel (Homo sapiens)
# METHOD: Standardized radiometric kinase assays, percentage of activity at 0.5 μM;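 further: Read-out is ³³P-labelled substrate protein phosphorylated by each kinase, captured on filters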
# reported eEF−2K(h) percentage of activity; entries follow
Just the number please, in %, no unit attached.

Use the examples below as a reference point.
1. C#Cc1cccc(Nc2nc3cc(C(=O)O)ccc3c3cnccc23)c1 [drawing 1137]: −8
2. O=C(O)c1ccc2c(c1)nc(Nc1cccc(Cl)c1)c1ccncc12 [drawing 1136]: 3
3. C#Cc1cccc(Nc2nc3cc(C(=O)O)ccc3c3cncnc23)c1 [drawing 1135]: −6

Turning now to a further compound:
## Input Please report eEF−2K(h) percentage of activity with each individual kinase of the panel (Homo sapiens) for item NC(=O)c1ccc2c(c1)nc(Nc1cccc(Cl)c1)c1ccncc12 [drawing 1138] .
## Output −3

---

# METHOD: Pharmacokinetics after IV and PO dose in ICR mice
# Assay type: in vivo
# PROTOCOL_CONDITIONS: mouse, plasma, PO 24.5 mg/kg
PROPERTY_NAME: half-life (min)
// units = min; emit number, no label

## Input For the compound C#Cc1cccc(Nc2nc3cc(C(=O)O)ccc3c3cncnc23)c1 [drawing 1129] , report half-life.
## Output 702

---

# TARGET_SYSTEM: recombinant human PIM1 (Homo sapiens (Human))
# METHOD: PIM-1 kinase activity in cell-free in vitro assay
# Assay type: biochemical
# PROTOCOL_CONDITIONS: 500 nM compound, cell-free; read-out: PIM-1: % inh 500 nM
met means recorded inhibition at 0.5 µM is 50% or above; not met means it is below 50%.

Consider the following illustrative entries.
1) COC(=O)c1ccc2c(c1)nc(Nc1ccccc1)c1ccncc12: not met
2) N#Cc1cccc(Nc2nc3cc(C(=O)O)ccc3c3sccc23)c1: met
3) CN(C)CCNc1nc2ccccc2c2sccc12 [drawing 1400]: not met
4) COC(=O)CNC(=O)c1cccc(Nc2nc3cc(-c4nnn[nH]4)ccc3c3sccc23)c1: not met
5) NS(=O)(=O)c1cccc(Nc2nc3cc(-c4nnn[nH]4)ccc3c3sccc23)c1: met
6) COc1cc(Nc2nc3cc(-c4nnn[nH]4)ccc3c3sccc23)cc(OC)c1: met
7) CN(C)C(=O)Cc1cccc(Nc2nc3cc(C(=O)O)ccc3c3sccc23)c1: not met
8) O=C(O)c1ccc2c(c1)nc(NCCc1ccccc1)c1ccsc12: not met
9) O=C(O)c1ccc2c(c1)nc(Nc1ccc3cc[nH]c3c1)c1ccsc12: not met
10) Clc1ccc(Nc2nc3cc(-c4nnn[nH]4)ccc3c3sccc23)cc1: met

## Input // inclusive: inhibition at 0.5 µM at least 50%? input: O=C(O)c1ccc2c(c1)nc(Nc1cccc(Cl)c1)c1ncncc12
## Output met
